Test: absorption spectrum, light emission spectrum, molecular extinction coefficient and quantum efficiency in solvents
Format: physicochemical
Settings: solvent PBS
Measured λex of individual entries
quantity_kind: λex (nm)

[
  {
    "compound": "CC1(C)C2=C3C=C(C(=O)O)C(=O)OC3CCN2c2cc3c(cc21)-c1ccccc1C3(C)C (centres unmarked) [Compound 61]",
    "unit_text": "nm",
    "number": 468
  },
  {
    "compound": "CC1(C)C2=C3C=C(CC(=O)O)C(=O)OC3CCN2c2ccccc21 (centres unmarked) [Compound 63]",
    "unit_text": "nm",
    "number": 434
  },
  {
    "compound": "CC1(C)C2=C3C=CC(=O)OC3CCN2c2ccc(S(=O)(=O)[O-])cc21.[Na+] (centres unmarked) [Compound 3]",
    "unit_text": "nm",
    "number": 423
  },
  {
    "compound": "CC1(C)C2=C3C=C(C(=O)CCCC(=O)[O-])C(=O)OC3CCN2c2ccc3cc(S(=O)(=O)[O-])ccc3c21.[Na+].[Na+] (centres unmarked) [Compound 16]",
    "unit_text": "nm",
    "number": 492
  },
  {
    "compound": "CC1(C)C2=C3C=C(C(=O)[O-])C(=O)OC3CCN2c2ccc(S(=O)(=O)[O-])cc21.[Na+].[Na+] (centres unmarked) [Compound 2]",
    "unit_text": "nm",
    "number": 451
  },
  {
    "compound": "CCOC(=O)CCCC(=O)C1=CC2=C3N(CCC2OC1=O)c1ccc2ccccc2c1C3(C)C (centres unmarked) [Compound 62]",
    "unit_text": "nm",
    "number": 486
  },
  {
    "compound": "CC1(C)C2=C3C=C(CC(=O)[O-])C(=O)OC3CCN2c2ccc(S(=O)(=O)[O-])cc21.[Na+].[Na+] (centres unmarked) [Compound 64]",
    "unit_text": "nm",
    "number": 423
  },
  {
    "compound": "CC1(C)C2=C3C=C(C(=O)[O-])C(=O)OC3CCN2c2ccccc21.[Na+] (centres unmarked) [Compound 5]",
    "unit_text": "nm",
    "number": 454
  }
]

* * *

Experiment: absorption spectrum, light emission spectrum, molecular extinction coefficient and quantum efficiency in solvents
Type: physicochemical
Details: solvent H2O
quantity_kind: λex (nm)

[
  {
    "molecule": "CC1(C)C2=C3C=C(C(=O)CCCC(=O)[O-])C(=O)OC3CCN2c2ccc3cc(S(=O)(=O)[O-])ccc3c21.[Na+].[Na+] (stereo not drawn)",
    "number": 492
  },
  {
    "molecule": "CC1(C)C2=C3C=C(C(=O)[O-])C(=O)OC3CCN2c2ccc(S(=O)(=O)[O-])cc21.[Na+].[Na+] (stereo not drawn)",
    "number": 453
  },
  {
    "molecule": "CC1(C)C2=C3C=C(C(=O)O)C(=O)OC3CCN2c2cc3c(cc21)-c1ccccc1C3(C)C (stereo not drawn)",
    "number": 468
  },
  {
    "molecule": "CC1(C)C2=C3C=C(C(=O)[O-])C(=O)OC3CCN2c2ccccc21.[Na+] (stereo not drawn)",
    "number": 452
  },
  {
    "molecule": "CC1(C)C2=C3C=CC(=O)OC3CCN2c2ccc(S(=O)(=O)[O-])cc21.[Na+] (stereo not drawn)",
    "number": 423
  },
  {
    "molecule": "CC1(C)C2=C3C=C(CC(=O)[O-])C(=O)OC3CCN2c2ccc(S(=O)(=O)[O-])cc21.[Na+].[Na+] (stereo not drawn)",
    "number": 422
  },
  {
    "molecule": "COC(=O)C1=CC2=C3N(CCC2OC1=O)c1cc2c(cc1C3(C)C)-c1ccccc1C2(C)C (stereo not drawn)",
    "number": 476
  },
  {
    "molecule": "CCOC(=O)CCCC(=O)C1=CC2=C3N(CCC2OC1=O)c1ccc2ccccc2c1C3(C)C (stereo not drawn)",
    "number": 468
  },
  {
    "molecule": "CC1(C)C2=C3C=C(CC(=O)O)C(=O)OC3CCN2c2ccccc21 (stereo not drawn)",
    "number": 432
  }
]

* * *

Measured λem of individual entries
Assay: absorption spectrum, light emission spectrum, molecular extinction coefficient and quantum efficiency in solvents
Assay type: physicochemical
Settings: solvent H2O
quantity_kind: λem (nm)

[
  {
    "molecule": "CC1(C)C2=C3C=C(CC(=O)O)C(=O)OC3CCN2c2ccccc21 (stereo not shown)",
    "number": 506
  },
  {
    "molecule": "CC1(C)C2=C3C=C(C(=O)[O-])C(=O)OC3CCN2c2ccc(S(=O)(=O)[O-])cc21.[Na+].[Na+] (stereo not shown)",
    "number": 489
  },
  {
    "molecule": "CC1(C)C2=C3C=C(CC(=O)[O-])C(=O)OC3CCN2c2ccc(S(=O)(=O)[O-])cc21.[Na+].[Na+] (stereo not shown)",
    "number": 500
  },
  {
    "molecule": "CC1(C)C2=C3C=CC(=O)OC3CCN2c2ccc(S(=O)(=O)[O-])cc21.[Na+] (stereo not shown)",
    "number": 492
  }
]

* * *

Measured λem of individual entries
Experiment: absorption spectrum, light emission spectrum, molecular extinction coefficient and quantum efficiency in solvents
Assay type: physicochemical
Conditions: solvent DMSO

[
  {
    "molecule": "COC(=O)C1=CC2=C3N(CCC2OC1=O)c1ccc2ccccc2c1C3(C)C (stereo not shown)",
    "λem / nm": 503
  },
  {
    "molecule": "COC(=O)C1=CC2=C3N(CCC2OC1=O)c1cc2c(cc1C3(C)C)-c1ccccc1C2(C)C (stereo not shown)",
    "λem / nm": 513
  },
  {
    "molecule": "CC1(C)C2=C3C=C(C(=O)[O-])C(=O)OC3CCN2c2ccccc21.[Na+] (stereo not shown)",
    "λem / nm": 490
  },
  {
    "molecule": "CC1(C)C2=C3C=C(C(=O)[O-])C(=O)OC3CCN2c2ccc(S(=O)(=O)[O-])cc21.[Na+].[Na+] (stereo not shown)",
    "λem / nm": 500
  }
]

* * *

Assay: absorption spectrum, light emission spectrum, molecular extinction coefficient and quantum efficiency in solvents
Assay type: physicochemical
Details: solvent PBS
Label scheme for λem: lower than 500 nm is -1, 500 nm and above is 1.

[
  {
    "compound": "CC1(C)C2=C3C=C(C(=O)O)C(=O)OC3CCN2c2cc3c(cc21)-c1ccccc1C3(C)C (stereo not shown)",
    "cat": 1
  },
  {
    "compound": "CC1(C)C2=C3C=C(C(=O)CCCC(=O)[O-])C(=O)OC3CCN2c2ccc3cc(S(=O)(=O)[O-])ccc3c21.[Na+].[Na+] (stereo not shown)",
    "cat": 1
  },
  {
    "compound": "CC1(C)C2=C3C=C(C(=O)[O-])C(=O)OC3CCN2c2ccccc21.[Na+] (stereo not shown)",
    "cat": -1
  },
  {
    "compound": "CCOC(=O)CCCC(=O)C1=CC2=C3N(CCC2OC1=O)c1ccc2ccccc2c1C3(C)C (stereo not shown)",
    "cat": 1
  }
]

* * *

Assay: absorption spectrum, light emission spectrum, molecular extinction coefficient and quantum efficiency in solvents
Assay type: physicochemical
Settings: solvent CH2Cl2
quantity_kind: λex (nm)

[
  {
    "compound": "COC(=O)C1=CC2=C3N(CCC2OC1=O)c1cc2c(cc1C3(C)C)-c1ccccc1C2(C)C (stereo not shown)",
    "number": 470
  },
  {
    "compound": "CC1(C)C2=C3C=C(CC(=O)O)C(=O)OC3CCN2c2ccccc21 (stereo not shown)",
    "number": 414
  },
  {
    "compound": "CC1(C)C2=C3C=CC(=O)OC3CCN2c2ccc(S(=O)(=O)[O-])cc21.[Na+] (stereo not shown)",
    "number": 403
  },
  {
    "compound": "CCOC(=O)CCCC(=O)C1=CC2=C3N(CCC2OC1=O)c1ccc2ccccc2c1C3(C)C (stereo not shown)",
    "number": 486
  }
]

* * *

Experiment: absorption spectrum, light emission spectrum, molecular extinction coefficient and quantum efficiency in solvents
Type: physicochemical
Settings: solvent PBS
Measured φ (quantum efficiency) of individual entries

[
  {
    "compound": "CCOC(=O)CCCC(=O)C1=CC2=C3N(CCC2OC1=O)c1ccc2ccccc2c1C3(C)C (stereo not shown) [Compound 62]",
    "φ (quantum efficiency)": 0.193
  },
  {
    "compound": "CC1(C)C2=C3C=C(CC(=O)[O-])C(=O)OC3CCN2c2ccc(S(=O)(=O)[O-])cc21.[Na+].[Na+] (stereo not shown) [Compound 64]",
    "φ (quantum efficiency)": 0.95
  },
  {
    "compound": "CC1(C)C2=C3C=C(C(=O)[O-])C(=O)OC3CCN2c2ccc(S(=O)(=O)[O-])cc21.[Na+].[Na+] (stereo not shown) [Compound 2]",
    "φ (quantum efficiency)": 0.796
  },
  {
    "compound": "CC1(C)C2=C3C=C(C(=O)[O-])C(=O)OC3CCN2c2ccccc21.[Na+] (stereo not shown) [Compound 5]",
    "φ (quantum efficiency)": 0.633
  }
]
